So I've got a bunch of compounds here, and I need their metabolites observed in cellular extracts (% of total radioactivity) values.
# System: human primary hepatocytes
# EXPERIMENTAL_DETAILS: Metabolic disposition of [^14C]-Compound 1 and [^14C]-2′-C-methyl guanosine in human primary hepatocytes (incubation medium, cellular extracts, nucleotide levels)
# Format: in vitro ADME
# RECORDED_CONDITIONS: human hepatocytes (Hu775), 1 μM [^14C]-Compound 1, 1 h
# Experimental: Primary hepatocytes: Freshly isolated cells from animal and human liver were obtained in suspension on ice. […] Cellular extracts were prepared by centrifugation at 16,000 RCF using an Eppendorf microcentrifuge (Eppendorf, Model 5415D) for 10 min to remove cellular debris. […] Prior to HPLC analysis (described below), radioactivity of the concentrated extracts was measured by LSC using 5 μL aliquots. […]
Numbers only here, please. The scale is %.

Name the recorded metabolites observed in cellular extracts (% of total radioactivity) for CC(C)(CO)C(=O)SCCOP(=O)(NCc1ccccc1)OC[C@H]1O[C@@H](n2cnc3c(=O)[nH]c(N)nc32)[C@](C)(O)[C@@H]1O (mixture of isomers) . 19.9

Name the recorded metabolites observed in cellular extracts (% of total radioactivity) for `C[C@@]1(O)[C@H](O)[C@@H](COP(=O)(O)O)O[C@H]1n1cnc2c(=O)[nH]c(N)nc21` . 5.45
